These entries and their values trace back to ChEMBL document CHEMBL1150322.

- Tgt: Cannabinoid receptor 1 (Rattus norvegicus)
- Sequence (P20272 whole entry): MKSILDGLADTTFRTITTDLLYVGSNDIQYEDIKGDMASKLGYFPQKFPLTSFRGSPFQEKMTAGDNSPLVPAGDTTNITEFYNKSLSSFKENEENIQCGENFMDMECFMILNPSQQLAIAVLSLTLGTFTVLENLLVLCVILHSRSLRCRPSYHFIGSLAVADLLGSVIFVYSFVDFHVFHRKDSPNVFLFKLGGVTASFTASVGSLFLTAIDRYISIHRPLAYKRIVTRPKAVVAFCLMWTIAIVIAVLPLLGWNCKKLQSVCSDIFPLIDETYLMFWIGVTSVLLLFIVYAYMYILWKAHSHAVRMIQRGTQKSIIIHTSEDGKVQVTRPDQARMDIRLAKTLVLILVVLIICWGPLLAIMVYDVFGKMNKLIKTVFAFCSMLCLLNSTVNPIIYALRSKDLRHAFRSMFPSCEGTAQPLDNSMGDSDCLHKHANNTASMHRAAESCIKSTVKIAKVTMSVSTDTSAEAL
Metric: Ki (nM)

A. CCNC1(C(N)=O)CN(c2cnc(-c3ccc(C(F)(F)F)cc3)c(-c3ccnc(Cl)c3)n2)C1
B. O=S1(=O)CCN(c2cnc(-c3ccc(C(F)(F)F)cc3)c(-c3ccncc3Cl)n2)CC1
// query Return label of the item with the larger Ki. Candidates: A , B . // output: label of the selected item
// result A

====

- Tgt: CYP3A4 (Homo sapiens, UniProt P08684)
- Sequence (P08684 whole entry): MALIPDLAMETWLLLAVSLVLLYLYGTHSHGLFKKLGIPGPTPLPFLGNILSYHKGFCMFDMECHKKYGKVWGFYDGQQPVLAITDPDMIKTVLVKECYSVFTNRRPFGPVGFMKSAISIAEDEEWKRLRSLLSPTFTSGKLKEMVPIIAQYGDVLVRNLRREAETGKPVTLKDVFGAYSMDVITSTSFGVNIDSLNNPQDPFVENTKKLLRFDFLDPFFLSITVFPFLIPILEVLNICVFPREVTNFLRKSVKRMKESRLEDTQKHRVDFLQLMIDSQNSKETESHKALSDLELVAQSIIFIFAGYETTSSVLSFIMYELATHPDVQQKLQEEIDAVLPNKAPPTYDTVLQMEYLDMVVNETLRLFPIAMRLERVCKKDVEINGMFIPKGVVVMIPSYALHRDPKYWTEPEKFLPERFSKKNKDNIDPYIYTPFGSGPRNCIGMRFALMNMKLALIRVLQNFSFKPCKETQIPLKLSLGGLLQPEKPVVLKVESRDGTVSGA
- Method Summary: in vitro
- Stated Conditions: human liver microsomes, probe midazolam
Metric: inhibition at 5 µM (%)

{"Smiles Text": "CCNC1(C(N)=O)CCN(c2cnc(-c3ccc(Cl)cc3)c(-c3ccncc3)n2)CC1", "Metric": "inhibition at 5 µM", "Number": 71}
{"Smiles Text": "CCC(=O)NC1CCN(c2cnc(-c3ccc(C(F)(F)F)cc3)c(-c3ccncc3Cl)n2)CC1", "Metric": "inhibition at 5 µM", "Number": 11}

A. CCNC1(C(N)=O)CCN(c2cnc(-c3ccc(Cl)cc3)c(-c3ccccc3Cl)n2)CC1
B. CCNC1(C(N)=O)CCN(c2cnc(-c3ccc(Cl)cc3)c(-c3ccnc(Cl)c3)n2)CC1
// query Lower value of inhibition at 5 µM belongs to which: A or B ? // output: label of the selected item
// result A

====

- Method Summary: Drug level at Tmax in rat brain at 5 mg/kg, po qd after 19 days
- Assay type: ADME, organism-based
- Design: dose 5 mg/kg, route oral
- Stated Conditions: read-out: Drug uptake
Metric: concentration at 456 h (ng/mL)

A. CC(C)C(=O)NC1CCN(c2cnc(-c3ccc(C(F)(F)F)cc3)c(-c3ccncc3Cl)n2)CC1
B. Cc1c(C(=O)NN2CCCCC2)nn(-c2ccc(Cl)cc2Cl)c1-c1ccc(Cl)cc1 [RIMONABANT]
// query Lower value of concentration at 456 h belongs to which: A or B ? // output: label of the selected item
// result B
(B: 318 ng/mL, A: 630 ng/mL)

====

- Method Summary: Drug level in rat plasma 5 mg/kg, po qd after 19 days measured 17 hrs after last dose
- Type: ADME, organism-based
- Set-up: dose 5 mg/kg, route oral
- Stated Conditions: read-out: Drug uptake
Metric: concentration at 17 h (ng/mL)

1. CC(C)C(=O)NC1CCN(c2cnc(-c3ccc(C(F)(F)F)cc3)c(-c3ccncc3Cl)n2)CC1
2. Cc1c(C(=O)NN2CCCCC2)nn(-c2ccc(Cl)cc2Cl)c1-c1ccc(Cl)cc1
// query Return label of the item with the larger concentration at 17 h. Candidates: 1 , 2 . // output: label of the selected item
// result 1

====

Assay read-out Ki; system under study: Cannabinoid receptor 1 (Homo sapiens, UniProt P21554).
Sequence (P21554 whole entry): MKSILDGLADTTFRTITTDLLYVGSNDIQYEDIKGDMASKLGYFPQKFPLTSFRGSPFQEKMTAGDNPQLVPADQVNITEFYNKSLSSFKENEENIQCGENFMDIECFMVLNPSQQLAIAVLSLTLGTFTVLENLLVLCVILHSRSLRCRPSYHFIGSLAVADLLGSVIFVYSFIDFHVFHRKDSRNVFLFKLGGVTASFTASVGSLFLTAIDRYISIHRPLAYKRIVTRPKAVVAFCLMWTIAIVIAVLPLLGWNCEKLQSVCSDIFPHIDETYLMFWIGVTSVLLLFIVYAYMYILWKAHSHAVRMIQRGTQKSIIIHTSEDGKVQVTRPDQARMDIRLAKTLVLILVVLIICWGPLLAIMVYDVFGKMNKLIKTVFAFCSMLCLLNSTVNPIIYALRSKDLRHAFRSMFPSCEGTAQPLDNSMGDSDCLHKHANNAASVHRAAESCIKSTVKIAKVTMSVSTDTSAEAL
Metric: Ki (nM)

{"Smiles Text": "CCNC1(C(N)=O)CCN(c2cnc(-c3ccc(C(F)(F)F)cc3)c(-c3ccnc(Cl)c3)n2)CC1", "Units Label": "nM", "Ki": 0.87}

a. CCNC1(C(N)=O)CCN(c2cnc(-c3ccc(OCC)cc3)c(-c3ccccc3Cl)n2)CC1
b. CCNC1(C(N)=O)CN(c2cnc(-c3ccc(C(F)(F)F)cc3)c(-c3ccnc(Cl)c3)n2)C1
c. CCNC1(C(N)=O)CCN(c2cnc(-c3ccc(Cl)cc3)c(-c3ccncc3)n2)CC1
d. CCC(=O)NC1CCN(c2cnc(-c3ccc(C(F)(F)F)cc3)c(-c3ccncc3Cl)n2)CC1
// query # ascending order, key=Ki Provide the labels, sequenced as the question asks.
// result d, b, c, a
(d: 0.8 nM, b: 1.2 nM, c: 9.81 nM, a: 15 nM)

====

- Tgt: Rattus norvegicus
- Method Summary: Ex vivo receptor occupancy by displacement of [3H]CP-55940 from rat CB1 receptor in po dosed rat cerebellum membrane after 3 hrs
Metric: Ki (nM)

a. Cc1c(C(=O)NN2CCCCC2)nn(-c2ccc(Cl)cc2Cl)c1-c1ccc(Cl)cc1 [RIMONABANT]
b. CC(C)C(=O)NC1CCN(c2cnc(-c3ccc(C(F)(F)F)cc3)c(-c3ccncc3Cl)n2)CC1
// query Lower value of Ki belongs to which: a or b ? // output: label of the selected item
// result a
(a: 1.1 nM, b: 4.4 nM)

====

- Tgt: CYP3A4 (Homo sapiens)
- Method Summary: in vitro
- Stated Conditions: human liver microsomes, probe midazolam
Metric: inhibition at 5 µM (%)

I. CCNC1(C(N)=O)CCN(c2cnc(-c3ccc(F)cc3)c(-c3ccc(Cl)cc3Cl)n2)CC1
II. CCNC1(C(N)=O)CCN(c2cnc(-c3ccc(OCC)cc3)c(-c3ccccc3Cl)n2)CC1
// query Return label of the item with the larger inhibition at 5 µM. Candidates: I , II . // output: label of the selected item
// result I
(I: 20.5%, II: 10%)

====

Assay read-out Ki; system under study: Cannabinoid receptor 1 (Homo sapiens, UniProt P21554).
Metric: Ki (nM)

{"Smiles Text": "CCNC1(C(N)=O)CCN(c2cnc(-c3ccc(Cl)cc3)c(-c3ccc(C#N)cc3)n2)CC1", "Ki, nM": 32.3}

a. CCNC1(C(N)=O)CCN(c2cnc(-c3ccc(Cl)cc3)c(-c3ccc(Cl)cc3Cl)n2)CC1
b. CCNC1(C(N)=O)CCN(c2cnc(-c3ccc(OCC)cc3)c(-c3ccc(OCC)cc3)n2)CC1
c. CCNC1(C(N)=O)CCN(c2cnc(-c3ccc(F)cc3)c(-c3ccc(Cl)cc3Cl)n2)CC1
d. CC(C)C(=O)NC1CCN(c2cnc(-c3ccc(C(F)(F)F)cc3)c(-c3ccncc3Cl)n2)CC1
// query Put the items in sequence by Ki, from largest down. Provide the labels, sequenced as the question asks.
// result b, c, a, d
(b: 2.84 nM, c: 1.75 nM, a: 0.91 nM, d: 0.24 nM)

====

- Method Summary: Drug level at Tmax in rat plasma at 5 mg/kg, po qd after 19 days
- Type: ADME, organism-based
- Set-up: dose 5 mg/kg, route oral
- Stated Conditions: read-out: Drug uptake
Metric: Cmax (ng/mL)

{"Smiles Text": "CC(C)C(=O)NC1CCN(c2cnc(-c3ccc(C(F)(F)F)cc3)c(-c3ccncc3Cl)n2)CC1", "Units Label": "ng/mL", "Cmax": 346}
{"Smiles Text": "Cc1c(C(=O)NN2CCCCC2)nn(-c2ccc(Cl)cc2Cl)c1-c1ccc(Cl)cc1", "Units Label": "ng/mL", "Cmax": 346}

====

- Method Summary: physchem
- Stated Conditions: aqueous, pH 7.4
- Description: Aqueous solubility at pH 7.4
Metric: solubility (µg/mL)

{"Smiles Text": "CC(C)C(=O)NC1CCN(c2cnc(-c3ccc(C(F)(F)F)cc3)c(-c3ccncc3Cl)n2)CC1", "solubility / µg/mL": 4.5}
{"Smiles Text": "Cc1c(C(=O)NN2CCCCC2)nn(-c2ccc(Cl)cc2Cl)c1-c1ccc(Cl)cc1", "solubility / µg/mL": 0.3}
{"Smiles Text": "CCNC1(C(N)=O)CN(c2cnc(-c3ccc(C(F)(F)F)cc3)c(-c3ccnc(Cl)c3)n2)C1", "solubility / µg/mL": 38}
{"Smiles Text": "CCNC1(C(N)=O)CCN(c2cnc(-c3ccc(Cl)cc3)c(-c3ccncc3)n2)CC1", "solubility / µg/mL": 74.9}

A. CCNC1(C(N)=O)CCN(c2cnc(-c3ccc(OCC)cc3)c(-c3ccccc3Cl)n2)CC1
B. CCNC1(C(N)=O)CCN(c2cnc(-c3ccc(C(F)(F)F)cc3)c(-c3ccnc(Cl)c3)n2)CC1
// query Lower value of solubility belongs to which: A or B ? // output: label of the selected item
// result A
(A: 1.2 µg/mL, B: 25.5 µg/mL)

1. CCNC1(C(N)=O)CCN(c2cnc(-c3ccc(Cl)cc3)c(-c3ccnc(Cl)c3)n2)CC1
2. CCNC1(C(N)=O)CCN(c2cnc(-c3ccc(Cl)cc3)c(-c3ccccc3Cl)n2)CC1
// query Return label of the item with the larger solubility. Candidates: 1 , 2 . // output: label of the selected item
// result 1
(1: 21.8 µg/mL, 2: 1.25 µg/mL)

a. O=S1(=O)CCN(c2cnc(-c3ccc(C(F)(F)F)cc3)c(-c3ccncc3Cl)n2)CC1
b. CCNC1(C(N)=O)CCN(c2cnc(-c3ccc(Cl)cc3)c(-c3ccc(C#N)cc3)n2)CC1
// query Return label of the item with the larger solubility. Candidates: a , b . // output: label of the selected item
// result b
(b: 36 µg/mL, a: 23 µg/mL)

====

pKi: −log10 of the molar value.
Assay read-out pKi; system under study: Cannabinoid receptor 1 (Homo sapiens, UniProt P21554).
Metric: pKi

{"Smiles Text": "O=S1(=O)CCN(c2cnc(-c3ccc(C(F)(F)F)cc3)c(-c3ccncc3Cl)n2)CC1", "pKi": 9.08}

P. CCNC1(C(N)=O)CCN(c2cnc(-c3ccc(Cl)cc3)c(-c3ccnc(Cl)c3)n2)CC1
Q. CCNC1(C(N)=O)CCN(c2cnc(-c3ccc(Cl)cc3)c(-c3ccccc3Cl)n2)CC1
// query Return label of the item with the larger pKi. Candidates: P , Q . // output: label of the selected item
// result P
